Consider the following binders; for each one, report its pKd.
target_entity: alpha-synuclein fibrils (UniProt P37840 1-140)
assay_explanation: SPR, captured mAb
Field pKd (float): negative decimal logarithm of the concentration in molar.

Prompt: What measured pKd goes with ACI-7079-3101E3-Ab1 (antibody, V domains shown, mouse hybridoma mAb; VH/VL only; also called 3101E3C9) VH: QVQLKESGPGLVAPSQSLSITCTVSGFSLTRYIINWVRQPPGKGLEWLGVIWTGGGTDYNSALKSRLSISKDNSKSQVFLKMNSLQTDDTARYYCAREYGYDGAWFAYWGQGTLVTVSA VL: DVLMTQTPLSLPVSLGDQASISCRSSQTIVHSNGNTYLEWYLQKPGQSPKLLIYKVSNRFSGVPDRFSGSGSGTDFTLKISRVEAEDLGVYYCFQGSHVPYTFGGGTKLEIK ?
Response: 7.86

Prompt: Another binder: ACI-7079-3103D9-Ab1 (antibody, V domains shown, mouse hybridoma mAb; VH/VL only; also called 3103D9C9) VH: QVSLKESGPGILQPSQTLSLTCSFSGFSLSTFGMGVGWIRQPSGKGLDWLTHIWWDDDKYYNPGLKSRLTISKDTSKNQVFLEIANVDTADTATYYCARIGDYYGTRGYFDVWGTGTTVTVSS VL: DIVMTQSPSSLTMSLGQTVTMSCKSSQSLLNSSNQKNHLAWYQQRPGQSPKLLVYFASTRESGVPERFIGGGSGTDFTLTISNVQSEDLTDYFCQQHYSTPYTFGGGTKLEIK
Response: 8.04

Prompt: Another binder: ACI-7087-4119E10-Ab2 (antibody, V domains shown, mouse hybridoma mAb; VH/VL only; also called 4119E10D12) VH: QVQLQQSGAELVRPGASVTLSCKASGYTFSDYEMNWVKQTPVHGLEWIGAIDPETGGTAYNQKFKGKAILTSDKSSSTAYMELRSLTSEDSAVYYCTRFLLIDFDYWGQGTTLTVSS VL: DVLMTQTPLSLPVSLGDQASISCRSSQSIVHSNGNTYLEWYLKKAGQSPKVLIYKVSNRFSGVPDRFSGSGSGTDFTLKISRVEAEDLGVYYCFQGSHVPYTFGGGTELEIK
Response: 7.79
